Hi there, I'd appreciate the recorded Ratio for every entry that follows.
experiment: Ratio of IC50 values against H69/P and […] cell lines.; type: functional
Provide a numeric answer; units are not to be included.

Exercise: Dear colleague, please send me the reported Ratio for "CN(C)CCNC(=O)c1cccc2ncc(-c3ccc4ccccc4c3)nc12" when you can.
Key: 0.92

Exercise: Dear colleague, please send me the reported Ratio for "CN(C)CCNC(=O)c1cccc2nc3c(nc12)-c1cccc2cccc-3c12" when you can.
Key: 0.93

Exercise: Dear colleague, please send me the reported Ratio for "C#CCOc1ccc2c(c1)cc(C(=O)NCCN(C)C)c1nc3ccccc3nc12" when you can.
Key: 1.4

Exercise: Dear colleague, please send me the reported Ratio for "COc1ccc2c(c1)cc(C(=O)NCCN(C)C)c1nc3ccccc3nc12" when you can.
Key: 1.3

Exercise: Dear colleague, please send me the reported Ratio for "CC/N=C(\S)Oc1ccc2c(c1)cc(C(=O)NCCN(C)C)c1nc3ccccc3nc12" when you can.
Key: 1.12
